# protocol.text: Pharmacokinetic test in mice (IV and PO)
# Type: in vivo, BALB/c mice
# experimental.conditions: mice, PO 10 mg/kg
Recorded F values for a group of compounds are listed next.
Enter your answer as a number in %; do not include the unit.

Please review the entries below; each comes with its answer.
Query: State its F: O=C(N[C@H]1[C@H](N2Cc3ccc(-c4nnc(C(F)F)o4)cc3S2(=O)=O)CCCC1(F)F)C(F)F
Response: 89.2

Query: State its F: O=C(N[C@@H]1CCCC[C@H]1N1Cc2ccc(-c3nnc(C(F)F)o3)cc2S1(=O)=O)C(F)F
Response: 123.92

Query: State its F: O=S1(=O)c2cc(-c3nnc(C(F)F)o3)ccc2CN1C(c1ccccn1)[C@H](O)c1ccccn1 (stereo partly shown)
Response: 117.4

Next item in the queue.
Query: State its F: CC(F)(F)C(=O)N[C@@H]1CCCC[C@H]1N1Cc2ccc(-c3nnc(C(F)F)o3)cc2S1(=O)=O
Response: 91.46
